# TGT: Serine/threonine-protein kinase B-raf (Homo sapiens)
# DETAILS: at 0.1 µM;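 also: mean percent inhibition of BRAF kinase activity, from the GSK PKIS kinase inhibitor screening set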
Here the recorded inhibition is given for each entry.
ENDPOINT: inhibition

[[record]]
molecule = "c1ccc(-c2n[nH]cc2-c2ccnc(-c3ccc(OCCN4CCOCC4)cc3)c2)nc1"
result = "-2.91%"

[[record]]
molecule = "COc1ccc2cc(-c3c(-c4ccncc4)nc(-c4ccc(S(C)(=O)=O)cc4C)n3C)ccc2c1"
result = "6.36%"

[[record]]
molecule = "NS(=O)(=O)c1ccc(Nc2cc(-c3ccc(O)c(F)c3)n[nH]2)cc1"
result = "-4.38%"

[[record]]
molecule = "NC(=O)c1ccc(Oc2nccc(-c3c(-c4ccc(F)cc4)ncn3C3CCNCC3)n2)cc1"
result = "7.51%"

[[record]]
molecule = "COc1ccc(-c2ccc3c(NC(=O)C4CC4)n[nH]c3n2)cc1"
result = "3.14%"

[[record]]
molecule = "Clc1ccc(CNc2nccc(-c3cnn4ncccc34)n2)cc1"
result = "0.05%"

[[record]]
molecule = "COc1ccc(C2=C(N3CCc4ccccc43)C(=O)NC2=O)cc1"
result = "5.73%"

[[record]]
molecule = "CN(C)CCCNc1nccc(-c2c(-c3ccc(F)cc3)nn3cc(C(F)(F)F)ccc23)n1"
result = "2.11%"

[[record]]
molecule = "NC(=O)Cc1ccccc1Oc1nccc(-c2c(-c3ccc(F)cc3)ncn2C2CCNCC2)n1"
result = "3.8%"

[[record]]
molecule = "COc1cc(Nc2ncc3c(C)nc(-c4cccc(C(F)(F)F)c4)n3n2)cc(OC)c1OC"
result = "5.44%"

[[record]]
molecule = "Cc1ccc(C(=O)NC2CCC2)cc1-c1ccc(C(=O)NCC2CC2)cc1"
result = "3.33%"

[[record]]
molecule = "Fc1ccc(-c2ncn(CCCN3CCOCC3)c2-c2ccncc2)cc1"
result = "0.29%"

[[record]]
molecule = "CS(=O)(=O)CCNCc1ccc(-c2ccc3ncnc(Nc4ccc(OCc5ccccc5)c(Br)c4)c3c2)o1"
result = "4.73%"

[[record]]
molecule = "Cc1nnc(-c2ccc(C)c(-c3ccc(C(=O)NCc4ccc(Cl)cc4)cc3)c2)o1"
result = "5.55%"

[[record]]
molecule = "NS(=O)(=O)c1ccc(N/N=C2\\C(=O)Nc3ccc(-c4cnco4)cc32)cc1"
result = "3.07%"

[[record]]
molecule = "C[C@@H](Oc1cc(-n2cnc3ccc(OCC4CCN(C)CC4)cc32)sc1C(N)=O)c1ccccc1Cl"
result = "8.65%"

[[record]]
molecule = "O=C1Nc2ccccc2/C1=C/Nc1ccc(-n2cncn2)cc1"
result = "6.1%"

[[record]]
molecule = "c1ccc(Oc2ccc(Nc3ncc(-c4ccccc4)o3)cc2)cc1"
result = "1.29%"

[[record]]
molecule = "COc1cc2ncn(-c3cc(OCCc4ccccc4)c(C(N)=O)s3)c2cc1OC"
result = "3.24%"

[[record]]
molecule = "COc1cccc(/C=N/Nc2ncnc3c2cnn3-c2cccc(OC)c2)c1"
result = "4.82%"

[[record]]
molecule = "NC(=O)c1cc(-c2ccncc2)cc(-c2ccccc2)c1N"
result = "8.42%"

[[record]]
molecule = "Fc1ccc(-c2ncn(C3CCNCC3)c2-c2ccnc(Oc3ccc4c(c3)OCO4)n2)cc1"
result = "7.39%"

[[record]]
molecule = "Cc1ccc(C(=O)NC(C)C)cc1-c1ccc(C(=O)NCC2CC2)cc1"
result = "-3.13%"

[[record]]
molecule = "O=C(NCC1CC1)c1ccc(-c2cccc(C(=O)NC3CC3)c2)cc1"
result = "3.46%"

[[record]]
molecule = "FC(F)(F)c1cccc(Nc2nccc(-c3cnn4nc(-c5ccccc5)ccc34)n2)c1"
result = "3.36%"

[[record]]
molecule = "O=C1NC(=O)C(c2cccc(Cl)c2)=C1Nc1ccc(Cl)c(C(=O)O)c1"
result = "5.48%"

[[record]]
molecule = "CCC(=O)Nc1ccc(C)c(-c2ccc(C(=O)NCC3CC3)cc2)c1"
result = "4.61%"

[[record]]
molecule = "CCS(=O)(=O)c1ccc(OC)c(Nc2ncc(-c3ccccc3Cl)o2)c1"
result = "0.55%"

[[record]]
molecule = "CN(C)c1ccc2c(c1)/C(=C/Nc1ccc(S(N)(=O)=O)cc1)C(=O)N2"
result = "2.49%"

[[record]]
molecule = "N#Cc1ccc(Oc2nccc(-c3c(-c4ccc(F)cc4)ncn3C3CCNCC3)n2)cc1"
result = "6.93%"

[[record]]
molecule = "COc1cc(C)c(N(C)C(=O)CN(C)C)cc1Nc1nc(Nc2cccc(F)c2C(N)=O)c2cc[nH]c2n1"
result = "1.62%"

[[record]]
molecule = "NC(=O)c1cc(-c2ccc(F)cc2)cc(-c2ccncc2)c1N"
result = "6.39%"

[[record]]
molecule = "CCc1nccc2c1nc(-c1nonc1N)n2CC"
result = "-0.39%"

[[record]]
molecule = "CCN(CC)Cc1ccc(Nc2nccc(-c3cnn4ncccc34)n2)cc1"
result = "7.03%"

[[record]]
molecule = "CNC(=O)c1cncc(/C=C/c2c(C)cccc2C)c1"
result = "0.8%"

[[record]]
molecule = "O=C(Nc1ccc(Oc2ccc3[nH]c(NC(=O)c4ccccc4)nc3c2)cc1)Nc1cc(C(F)(F)F)ccc1F"
result = "4.48%"

[[record]]
molecule = "CCS(=O)(=O)c1ccc(OC)c(Nc2ncc(-c3cccc(-c4ccccc4F)c3)o2)c1"
result = "1.09%"

[[record]]
molecule = "Nc1nccc(-c2c(-c3ccc(F)cc3)ncn2C2CCC(O)CC2)n1 (centres undefined)"
result = "-2.22%"

[[record]]
molecule = "COc1cc(Nc2ncc3c(C)nc(-c4cccc(Oc5ccccc5)c4)n3n2)cc(OC)c1OC"
result = "3.08%"


FYI, the data here is from ChEMBL document CHEMBL1961873.
